FYI, the data here is from patent US20200339544A1.

Target: DM EGFR (DoubleMutantEGFR, L828R/T790M) (Homo sapiens, UniProt P00533, L858R/T790M)
Construct: purchased SignalChem
Experiment: Inhibition of DM EGFR kinase activity (ADP-Glo)
Type: biochemical
Conditions: selectivity index, kinase EGFR WT vs EGFR DM
// label = true if SI, IC50(WT)/IC50(DM) is not less than 20, otherwise false

Tell me whether SI, IC50(WT)/IC50(DM) is at least 20 here: C=CC(=O)Nc1cc(Nc2cc(C(=O)c3ccc(N4CCCC4)cc3)ccn2)c(OC)cc1N(C)CCN(C)C [EGFR_3365_56] false

Tell me whether SI, IC50(WT)/IC50(DM) is at least 20 here: C=CC(=O)Nc1cc(Nc2nccc(C(=O)c3ccc(OCCCC)cc3)n2)c(OC)cc1N(C)CCN(C)C [EGFR_3365_66] true

Tell me whether SI, IC50(WT)/IC50(DM) is at least 20 here: C=CC(=O)Nc1cc(Nc2nccc(C(=O)c3ccc(OC)cc3OC(C)C)n2)c(OC)cc1N(C)CCN(C)C [EGFR_3365_104] false

Tell me whether SI, IC50(WT)/IC50(DM) is at least 20 here: C=CC(=O)Nc1cc(Nc2nccc(C(=O)c3ccc(N4CCC4)cc3)n2)c(OC)cc1N(C)CCN(C)C [EGFR_3365_58] false

Tell me whether SI, IC50(WT)/IC50(DM) is at least 20 here: C=CC(=O)Nc1cc(Nc2cc(C(=O)c3ccc(N(C)C)cc3)ccn2)c(OC)cc1N(C)CCN(C)C.O=C(O)C(F)(F)F [EGFR_3365_4] false

Tell me whether SI, IC50(WT)/IC50(DM) is at least 20 here: C=CC(=O)Nc1cc(Nc2nccc(C(=O)c3cccc(OC)c3)n2)c(OC)cc1N(C)CCN(C)C [EGFR_3365_32] true

Tell me whether SI, IC50(WT)/IC50(DM) is at least 20 here: C=CC(=O)Nc1cc(Nc2nccc(C(=O)c3ccc(OCc4ccccc4)cc3)n2)c(OC)cc1N(C)CCN(C)C [EGFR_3365_16] false

Tell me whether SI, IC50(WT)/IC50(DM) is at least 20 here: C=CC(=O)Nc1cc(Nc2nccc(C(=O)c3cccc(F)c3)n2)c(OC)cc1N(C)CCN(C)C [EGFR_3365_11] true

Tell me whether SI, IC50(WT)/IC50(DM) is at least 20 here: C=CC(=O)Nc1cc(Nc2nccc(C(=O)c3cc4ccccc4n3C)n2)c(OC)cc1N(C)CCN(C)C [EGFR_3365_94] false

Tell me whether SI, IC50(WT)/IC50(DM) is at least 20 here: C=CC(=O)Nc1cc(Nc2nccc(C(=O)c3ccc(N4CCC(OC)CC4)cc3)n2)c(OC)cc1N(C)CCN(C)C [EGFR_3365_98] true

Tell me whether SI, IC50(WT)/IC50(DM) is at least 20 here: C=CC(=O)Nc1cc(Nc2cc(C(=O)c3ccc(N4CCOCC4)cc3)ccn2)c(OC)cc1N(C)CCN(C)C.O=C(O)C(F)(F)F [EGFR_3365_5] true

Tell me whether SI, IC50(WT)/IC50(DM) is at least 20 here: C=CC(=O)Nc1cc(Nc2nccc(C(=O)c3ccc(N4CCCC4)cc3)n2)c(OC)cc1N(C)CCN(C)C [EGFR_3365_63] true

Tell me whether SI, IC50(WT)/IC50(DM) is at least 20 here: C=CC(=O)Nc1cc(Nc2nccc(C(=O)c3ccc(N4CCCC4=O)cc3)n2)c(OC)cc1N(C)CCN(C)C [EGFR_3365_91] true

Tell me whether SI, IC50(WT)/IC50(DM) is at least 20 here: C=CC(=O)Nc1cc(Nc2cc(C(=O)c3ccc(OCCOC)cc3)ccn2)c(OC)cc1N(C)CCN(C)C [EGFR_3365_93] true
